Entry source: ChEMBL document CHEMBL1201862

tested on: SF-539; test: NCI tumour cell line growth inhibition, 48 h
Calls of active or inactive are those of the source. Cut-off read from the data, not from the text of the source: active = GI50 up to about 1.1 µM and inactive = higher.
measured_parameter: GI50

Input line: // GI50 lookup, key: CCn1c(=O)c2ccccc2n2c(=O)c3cc4ccccc4cc3nc12
Output line: 62.7 µM (inactive)

Input line: // GI50 lookup, key: CCCC(=O)Nc1cc([N+](=O)[O-])c([N+](=O)[O-])cc1OC
Output line: 20 µM (inactive)

Input line: // GI50 lookup, key: O=C(/C=C/c1cc(F)ccc1F)OCCc1ccccc1
Output line: 88.5 µM (inactive)

Input line: // GI50 lookup, key: CCC/C=C1\CCC(CN(C)C)C1=O (stereo not drawn)
Output line: 10.8 µM (inactive)

Input line: // GI50 lookup, key: COC(=O)/C=C/CCC#Cc1ccccc1C#CCC/C=C/C(=O)OC
Output line: 10.5 µM (inactive)

Input line: // GI50 lookup, key: O=c1ccc2nc3ccc(O)cc3oc-2c1
Output line: 4.7 µM (inactive)

Input line: // GI50 lookup, key: CCO/C([O-])=C(/C=O)[n+]1c(C)n(C)c2ccccc21
Output line: > 100 µM (inactive)

Input line: // GI50 lookup, key: CC(=O)Nc1ccc(C(=O)N2N=C(C)/C(=C/c3cccc([N+](=O)[O-])c3)C2=O)cc1
Output line: > 100 µM (inactive)

----------
tested on: RPMI-8226; test: NCI tumour cell line growth inhibition, 48 h
Where a name gives a salt, the structure may show the parent alone. The source made the active and inactive calls. Rule as the data show it: active = GI50 up to about 1.1 µM and inactive = higher.
Outcome field: choose from active, inactive

Input line: What call does the record list for CC(=O)NC1=C(NCC(C)C)C(=O)c2ccccc2C1=O ?
Output line: inactive

Input line: What call does the record list for Cc1cc(C)c(S(=O)(=O)N(CCCCCN)OCCCN)c(C)c1 ?
Output line: inactive

Input line: What call does the record list for CN1CCC(CN2c3ccccc3Sc3ccccc32)C1 (stereo unspecified) [METHDILAZINE HYDROCHLORIDE] ?
Output line: inactive

Input line: What call does the record list for COc1cc(/C=C2\[C@H]3c4c(c(OC)c(C)c(OC)c4OC)CC(C(=O)N2Cc2ccccc2)N3C)c(OC)c(C)c1OC ?
Output line: inactive

Input line: What call does the record list for Cc1ccc(S(=O)(=O)ON2C(=O)c3cccc4cc([N+](=O)[O-])cc(c34)C2=O)cc1 ?
Output line: inactive

Input line: What call does the record list for O=C(Cc1ccccc1)NNc1nc(NNC(=O)c2ccncc2)nc(Nc2cccc(Cl)c2)n1 ?
Output line: inactive

Input line: What call does the record list for CCCc1cn2c(/C=N/NC(=N)N)c(-c3ccc([N+](=O)[O-])cc3)nc2s1 ?
Output line: active

Input line: What call does the record list for O=c1oc2cccnc2n1CCCCN1CCN(c2ccccc2)CC1 ?
Output line: inactive

Input line: What call does the record list for CC(C)[C@@H](C)[C@@]1(C)C[C@@H]1[C@@H](C)[C@H]1CC[C@@H]([C@@H]2CC=C3C[C@@H](O)CC[C@]3(C)C2=O)[C@]1(C)CCO ?
Output line: inactive

Input line: What call does the record list for O=S(=O)(O)C(F)(F)C(F)(F)C(F)(F)C(F)(F)F ?
Output line: inactive

Input line: What call does the record list for Cc1ccccc1NC(=O)Cc1csc(N/N=C2\C(=O)Nc3ccccc32)n1 ?
Output line: inactive

----------
Could you please report measured GI50 for the items listed next?
tested on: COLO 205; assay: NCI tumour cell line growth inhibition, 48 h
Calls of active or inactive are those of the source. No stated cut-off is given here; in the data, active = GI50 up to about 1.1 µM and inactive = higher.

Input line: // GI50 lookup, key: CC(C)C(/C=C/c1ccc(Cl)cc1)=N\NC(=S)NN
Output line: 24.2 µM (inactive)

Input line: // GI50 lookup, key: CCOC(=O)CNC(=O)OCc1ccccc1
Output line: > 100 µM (inactive)

Input line: // GI50 lookup, key: CC(C)=CCC/C(C)=C/CC/C(C)=C/CC/C(C)=C/CC/C(C)=C\CC/C(C)=C/CC/C(C)=C/CC/C(C)=C/Cc1cc(O)ccc1O
Output line: 0.387 µM (active)

Input line: // GI50 lookup, key: O=C1c2cc(Cc3ccccc3)c(=O)c(Cc3ccccc3)cc2C(=O)c2cc(Cc3ccccc3)c(=O)c(Cc3ccccc3)cc21
Output line: > 100 µM (inactive)

Input line: // GI50 lookup, key: CN(C)/C=N\c1ccn(CCO)c(=O)n1
Output line: > 100 µM (inactive)

Input line: // GI50 lookup, key: CN/C(=N\n1cnnc1)OC
Output line: > 100 µM (inactive)

Input line: // GI50 lookup, key: C[C@H]1CC[C@@]2(NC1)O[C@H]1C[C@H]3[C@@H]4CC[C@H]5C[C@@H](O)CC[C@]5(C)[C@H]4CC[C@]3(C)[C@H]1[C@@H]2C
Output line: > 100 µM (inactive)

Input line: // GI50 lookup, key: Nc1ncc(Cl)c(NCC2(CO)CC(CCc3ccccc3)C2)n1 (stereo unspecified)
Output line: > 100 µM (inactive)

Input line: // GI50 lookup, key: CCCCCCNc1n[nH]c(=O)c2c1nnn2Cc1ccccc1
Output line: > 100 µM (inactive)

Input line: // GI50 lookup, key: Cc1ccc([N+](=O)[O-])cc1S(=O)(=O)Nc1ccc(C2=NNC(c3ccccc3O)C2)cc1 (stereo unspecified)
Output line: 24.7 µM (inactive)

Input line: // GI50 lookup, key: COC(=O)[C@@H]1C(=O)O[C@@H](c2ccc(OC)c(OC)c2OC)[C@@H]1C(=O)OC.COC(=O)[C@H]1C(=O)O[C@@H](c2ccc(OC)c(OC)c2OC)[C@@H]1C(=O)OC
Output line: > 100 µM (inactive)

Input line: // GI50 lookup, key: CCc1nc(N)nc(N)c1-c1ccc(NC)c([N+](=O)[O-])c1
Output line: 4.84 µM (inactive)

Input line: // GI50 lookup, key: O=C(O)c1ccccc1/C=N\N=C1NCCN1
Output line: > 100 µM (inactive)

Input line: // GI50 lookup, key: CC(C)C(=S)N(C)O
Output line: 0.35 µM (active)

Input line: // GI50 lookup, key: c1ccc(C2=NOC3C4CCC(C4)C23)cc1 (stereo unspecified)
Output line: > 100 µM (inactive)

Input line: // GI50 lookup, key: CSc1nc2c(ncn2C2OCC(O)C(O)C2O)c(=O)[nH]1 (stereo unspecified)
Output line: > 100 µM (inactive)

Input line: // GI50 lookup, key: O=C(NC1(C(=O)O)CCCC1)c1ccccc1
Output line: > 100 µM (inactive)

Input line: // GI50 lookup, key: CN(C)CCCNC(=O)c1cc(NC(=O)c2cc(NC(=O)[C@H]3C[C@@H]3C(=O)Nc3cc(C(=O)Nc4cc(C(=O)NCCCN(C)C)n(C)c4)n(C)c3)cn2C)cn1C
Output line: > 100 µM (inactive)

Input line: // GI50 lookup, key: CN(C)CCC(=O)[C@@]1(O)CC[C@H]2[C@@H]3CC=C4C[C@@H](O)CC[C@]4(C)[C@H]3CC[C@@]21C
Output line: 18.4 µM (inactive)

Input line: // GI50 lookup, key: COc1cccc2c1C(=O)c1c(O)c3c(c(O)c1C2=O)C[C@@](O)(C(=O)CO)CC3OC1CC(N)C(OC2CCCCO2)C(C)O1 (stereo partly specified)
Output line: 1.21 µM (inactive)

Input line: // GI50 lookup, key: CCCc1cn2c(/C=N/NC(=N)N)c(-c3ccc([N+](=O)[O-])cc3)nc2s1
Output line: 0.891 µM (active)

Input line: // GI50 lookup, key: CCCCCCCCCCCCC1NC(=N)NC2(CCCO2)C1C(=O)OC (stereo unspecified)
Output line: 3.03 µM (inactive)

Input line: // GI50 lookup, key: CC(=O)c1c(SCCN2CCCC2)n(-c2ccccc2)c(=S)n(-c2ccccc2)c1=O
Output line: 1.76 µM (inactive)

Input line: // GI50 lookup, key: CC(=O)SC(C[N+](=O)[O-])c1ccccc1 (stereo unspecified)
Output line: 2.77 µM (inactive)

Input line: // GI50 lookup, key: CCN(CC)CCCNc1ccc2nnn3c4ccc(O)cc4c(=O)c1c23
Output line: 2.81 µM (inactive)

Input line: // GI50 lookup, key: C=C1C(=O)OC2/C=C(\C)CC/C=C(\C)CC(OC(=O)/C(=C/CO)CO)[C@@H]12 (stereo partly specified)
Output line: 2.2 µM (inactive)

Input line: // GI50 lookup, key: CNc1ccc(-c2nc3cc(C)ccc3o2)cc1
Output line: > 100 µM (inactive)

Input line: // GI50 lookup, key: O=C1C(CN2CCCC2)CCC1CN1CCCC1 (stereo unspecified)
Output line: 5.71 µM (inactive)

Input line: // GI50 lookup, key: C/C(=C\COc1cc(O)c2c(c1)C(=O)c1cc(C)cc(O)c1C2=O)CCC1OC1(C)C (stereo unspecified)
Output line: > 100 µM (inactive)

Input line: // GI50 lookup, key: O=C(CCCCCCCCCCc1ccccc1)C1=C(O)CC(O)CC1=O (stereo unspecified)
Output line: 45.2 µM (inactive)

Input line: // GI50 lookup, key: CC(C)(C)C(=O)C(C(=O)C(C)(C)C)C(=O)C(C)(C)C
Output line: > 100 µM (inactive)
